All values here come from paper PMC8119466.

# Lookup of reported % Phosphatase Activity (compared to DMSO) PRL-2 keyed by entry
# system: recombinant PRL-2 (Homo sapiens, UniProt Q12974)
# Construct: 6xHis (N, cleaved yes); made in house; host or cells: E. coli One Shot BL21 Star
# Sequence (Q12974 whole entry): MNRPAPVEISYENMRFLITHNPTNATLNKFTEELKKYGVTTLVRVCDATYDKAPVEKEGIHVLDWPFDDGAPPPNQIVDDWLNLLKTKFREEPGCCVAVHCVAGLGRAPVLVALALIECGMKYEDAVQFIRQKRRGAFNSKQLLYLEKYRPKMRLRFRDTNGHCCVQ
# assay_overview: In vitro phosphatase assay (DiFMUP hydrolysis), PRL-2;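 also: PRL-2 activity read as DiFMUP hydrolysis after 20 min at room temperature with drug, enzyme first pre-reduced at 4 °C for 20 min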
# Assay type: biochemical
# experimental_parameters: FDA-approved drug screen; compared to DMSO
Your answer should be a plain number; it is taken to be in %.

Below: 5 compounds and their reported % Phosphatase Activity (compared to DMSO) PRL-2.
O=C([O-])c1cc(=O)c2c(OCC(O)COc3cccc4oc(C(=O)[O-])cc(=O)c34)cccc2o1.[Na+].[Na+] [Disodium Cromoglycate]
78
CCN(CC)CC#CCOC(=O)C(O)(c1ccccc1)C1CCCCC1 (stereo not drawn) [Oxybutynin chloride]
85
O=C(NC[C@H](O)CO)c1ccncc1Nc1ccc(I)cc1F
92
CCOC(=O)CC(=O)N1CCSC1COc1ccccc1OC (stereo not drawn)
98
NC(=O)[C@@H](CCC(F)(F)F)N(Cc1ccc(-c2ncon2)cc1F)S(=O)(=O)c1ccc(Cl)cc1
85

Challenge: Would you mind telling me what % Phosphatase Activity (compared to DMSO) PRL-2 value was observed for CCCCC(=O)O[C@]1(C(=O)CO)[C@@H](C)C[C@H]2[C@@H]3CCC4=CC(=O)C=C[C@]4(C)[C@@]3(F)[C@@H](O)C[C@@]21C [Betamethasone valerate (Betnovate)] ?
Response given: 83

Challenge: Would you mind telling me what % Phosphatase Activity (compared to DMSO) PRL-2 value was observed for Br.COc1ccc2c3c1O[C@H]1C[C@@H](O)C=C[C@@]31CCN(C)C2 ?
Response given: 85

Challenge: Would you mind telling me what % Phosphatase Activity (compared to DMSO) PRL-2 value was observed for C#C[C@]1(O)CC[C@H]2[C@@H]3CCC4=CC(=O)CC[C@@H]4[C@H]3C(=C)C[C@@]21CC ?
Response given: 85

Challenge: Would you mind telling me what % Phosphatase Activity (compared to DMSO) PRL-2 value was observed for c1ccc(-c2ccc(C(c3ccccc3)n3ccnc3)cc2)cc1 (stereo not drawn) ?
Response given: 108

Challenge: Would you mind telling me what % Phosphatase Activity (compared to DMSO) PRL-2 value was observed for OC[C@@H](O)[C@@H](O)[C@H](O)[C@H](O)CO ?
Response given: 101

Challenge: Would you mind telling me what % Phosphatase Activity (compared to DMSO) PRL-2 value was observed for CCc1c2c(nc3ccc(OC(=O)N4CCC(N5CCCCC5)CC4)cc13)-c1cc3c(c(=O)n1C2)COC(=O)[C@]3(O)CC.Cl.O.O.O [Irinotecan HCl Trihydrate] ?
Response given: 4207

Challenge: Would you mind telling me what % Phosphatase Activity (compared to DMSO) PRL-2 value was observed for CCN1CCCC1CNC(=O)c1cc(S(=O)(=O)CC)c(N)cc1OC (stereo not drawn) [Amisulpride] ?
Response given: 89
